Tested on: E. cloacae 963
Assay info: in vitro antibacterial activity, agar plate dilution method (MIC)
Format: cell-based
Condition set: Enterobacter cloacae, 16 h; E. cloacae 963; 10^6 CFU/ml; read-out: Minimum Inhibitory Concentration (MIC)
Measured metric: MIC (µg/mL)

>>> quantitative_readout("CC(C)O/N=C(\\C(=O)N[C@@H]1C(=O)N2C(C(=O)O)=C(CSc3nnc(-c4ccc(O)c(O)c4)o3)CS[C@H]12)c1csc(N)n1")
0.0125
>>> quantitative_readout("CC(C)(O/N=C(\\C(=O)N[C@@H]1C(=O)N2C(C(=O)O)=C(CSc3nnc(-c4ccccc4)s3)CS[C@H]12)c1csc(N)n1)C(=O)O [compound 6, reference compound]")
6.25
>>> quantitative_readout("CC(C)(O/N=C(\\C(=O)N[C@@H]1C(=O)N2C(C(=O)O)=C(CSc3nnc(-c4ccc(O)cc4)o3)CS[C@H]12)c1csc(N)n1)C(=O)O [compound 4, reference compound]")
3.12
>>> quantitative_readout("CC(C)(ON=C(C(=O)NC1C(=O)N2C(C(=O)O)=C(CSc3nc(-c4ccc(O)c(O)c4)cs3)CSC12)c1csc(N)n1)C(=O)O (stereo not drawn)")
0.1
>>> quantitative_readout("CCO/N=C(\\C(=O)N[C@@H]1C(=O)N2C(C(=O)O)=C(CSc3ncc(-c4ccc(OC(C)=O)c(OC(C)=O)c4)o3)CS[C@H]12)c1csc(N)n1")
0.1

---

System: Ps. aeruginosa AKR17
Assay info: in vitro antibacterial activity, agar plate dilution method (MIC)
Type: cell-based, Pseudomonas aeruginosa
Condition set: Pseudomonas aeruginosa, 16 h; Ps. aeruginosa AKR17; 10^6 CFU/ml; read-out: Minimum Inhibitory Concentration (MIC)
Measured metric: MIC (µg/mL)

>>> quantitative_readout("Nc1nc(/C(=N/OC(C(=O)O)c2ccc(O)c(O)c2)C(=O)N[C@@H]2C(=O)N3C(C(=O)O)=C(CSc4ncc(-c5ccc(O)c(O)c5)o4)CS[C@H]23)cs1 (some centres unmarked)")
0.2
>>> quantitative_readout("CC(C)(O/N=C(\\C(=O)N[C@@H]1C(=O)N2C(C(=O)O)=C(CSc3nc(-c4ccc(O)cc4)c(CC(=O)O)s3)CS[C@H]12)c1csc(N)n1)C(=O)O [compound 19, reference compound]")
25
>>> quantitative_readout("CC(C)ON=C(C(=O)NC1C(=O)N2C(C(=O)O)=C(CSc3nc(-c4ccc(O)c(O)c4)cs3)CSC12)c1csc(N)n1 (centres unmarked)")
50

---

System: Ps. aeruginosa AK 109
Assay info: in vitro antibacterial activity, agar plate dilution method (MIC)
Assay type: cell-based, Pseudomonas aeruginosa
Condition set: Pseudomonas aeruginosa, AK109, 16 h, Ps. aeruginosa AK 109; 10^6 CFU/ml; read-out: Minimum Inhibitory Concentration (MIC)
Measured metric: MIC (µg/mL)

>>> quantitative_readout("Nc1nc(C(=NOC(C(=O)O)c2ccc(O)c(O)c2)C(=O)NC2C(=O)N3C(C(=O)O)=C(CSc4nnc(-c5ccc(O)c(O)c5)s4)CSC23)cs1 (single isomer, unassigned)")
0.2
>>> quantitative_readout("CC(C)(O/N=C(\\C(=O)N[C@@H]1C(=O)N2C(C(=O)O)=C(CSc3nnc(-c4ccccc4)o3)CS[C@H]12)c1csc(N)n1)C(=O)O [compound 3, reference compound]")
50
>>> quantitative_readout("Nc1nc(/C(=N/OCc2ccccc2CC(=O)O)C(=O)N[C@@H]2C(=O)N3C(C(=O)O)=C(CSc4nnc(-c5ccc(O)c(O)c5)o4)CS[C@H]23)cs1")
0.1
>>> quantitative_readout("CO/N=C(\\C(=O)N[C@@H]1C(=O)N2C(C(=O)O)=C(CSc3nnc(-c4ccc(O)cc4)o3)CS[C@H]12)c1csc(N)n1 [compound 2, reference compound]")
50
>>> quantitative_readout("Nc1nc(/C(=N/OCc2ccc(O)c(O)c2)C(=O)N[C@@H]2C(=O)N3C(C(=O)O)=C(CSc4nnc(-c5ccc(O)c(O)c5)o4)CS[C@H]23)cs1")
100

---

Tested on: P. vulgaris No. 33
Assay info: in vitro antibacterial activity, agar plate dilution method (MIC)
Type: cell-based
Condition set: Proteus vulgaris, NO.33, 16 h, read-out: Minimum Inhibitory Concentration (MIC), *P. vulgaris No. 33, lactamase-producing strain; 10^6 CFU/ml
# maps each entry to its MIC
Measured metric: MIC (µg/mL)

>>> quantitative_readout("C#CCO/N=C(\\C(=O)N[C@@H]1C(=O)N2C(C(=O)O)=C(CSc3nnc(-c4ccc(O)c(O)c4)o3)CS[C@H]12)c1csc(N)n1 [compound 9]")
0.025
>>> quantitative_readout("CCON=C(C(=O)N[C@@H]1C(=O)N2C(C(=O)[O-])=C(CSc3ncc(-c4ccc(O)c(O)c4)o3)CS[C@H]12)c1csc(N)n1.[Na+] [Ex. 63]")
0.025
>>> quantitative_readout("Nc1nc(/C(=N/OC2(C(=O)O)CC2)C(=O)N[C@@H]2C(=O)N3C(C(=O)O)=C(CSc4ncc(-c5ccc(O)c(O)c5)o4)CS[C@H]23)cs1 [Ex. 66]")
0.025
>>> quantitative_readout("Nc1nc(/C(=N/OCc2ccc(O)c(O)c2)C(=O)N[C@@H]2C(=O)N3C(C(=O)O)=C(CSc4nnc(-c5ccc(O)c(O)c5)o4)CS[C@H]23)cs1 [Ex. 14]")
0.2
>>> quantitative_readout("CO/N=C(\\C(=O)N[C@@H]1C(=O)N2C(C(=O)O)=C(CSc3nnc(-c4ccc(O)cc4)o3)CS[C@H]12)c1csc(N)n1 [compound 2, reference compound]")
0.78
>>> quantitative_readout("Nc1nc(/C(=N/OCc2ccccc2)C(=O)N[C@@H]2C(=O)N3C(C(=O)O)=C(CSc4nnc(-c5ccc(O)c(O)c5)s4)CS[C@H]23)cs1 [Ex. 32]")
0.2

---

Test system: A. calcoaceticus No. 4
Assay info: in vitro antibacterial activity, agar plate dilution method (MIC)
Type: cell-based, Acinetobacter calcoaceticus
Condition set: Acinetobacter calcoaceticus, NO.4, 16 h, A. calcoaceticus No. 4; 10^6 CFU/ml; read-out: Minimum Inhibitory Concentration (MIC)
Where a name gives a salt, the structure may show the parent alone.
Measured metric: MIC (µg/mL)

>>> quantitative_readout("C#CCON=C(C(=O)NC1C(=O)N2C(C(=O)O)=C(CSc3nc(C(=O)O)c(-c4ccc(O)c(O)c4)s3)CSC12)c1csc(N)n1 (stereo not drawn) [Ex. 56]")
0.2
>>> quantitative_readout("Nc1nc(/C(=N/OCc2ccccc2)C(=O)N[C@@H]2C(=O)N3C(C(=O)O)=C(CSc4nnc(-c5ccc(O)c(O)c5)o4)CS[C@H]23)cs1 [Ex. 13]")
0.2
>>> quantitative_readout("CC(C)(O/N=C(\\C(=O)N[C@@H]1C(=O)N2C(C(=O)O)=C(CSc3ncc(-c4ccc(O)c(O)c4)o3)CS[C@H]12)c1csc(N)n1)C(=O)O [Ex. 64]")
0.2
>>> quantitative_readout("CO/N=C(\\C(=O)N[C@@H]1C(=O)N2C(C(=O)O)=C(CSc3nc(-c4ccc(OC)c(OC)c4)cs3)CS[C@H]12)c1csc(N)n1 [compound 13, trifluoroacetate, reference compound]")
100
>>> quantitative_readout("Nc1nc(/C(=N/OC2(C(=O)O)CC2)C(=O)N[C@@H]2C(=O)N3C(C(=O)O)=C(CSc4nnc(-c5ccc(O)c(O)c5)s4)CS[C@H]23)cs1 [Ex. 35]")
0.05

---

# maps each entry to its log10 of MIC
Test system: E. cloacae 963
Assay info: in vitro antibacterial activity, agar plate dilution method (MIC)
Assay type: cell-based
Condition set: Enterobacter cloacae, 963, 16 h, read-out: Minimum Inhibitory Concentration (MIC), E. cloacae 963; 10^6 CFU/ml
Measured metric: log10 of MIC (log10 of the value in µg/mL)

>>> quantitative_readout("CC(C)(O/N=C(\\C(=O)N[C@@H]1C(=O)N2C(C(=O)O)=C(CSc3nc(-c4ccccc4)c(CC(=O)O)s3)CS[C@H]12)c1csc(N)n1)C(=O)O [compound 16, reference compound]")
0.80
>>> quantitative_readout("Nc1nc(/C(=N/OC(C(=O)O)c2ccccc2)C(=O)N[C@@H]2C(=O)N3C(C(=O)O)=C(CSc4nnc(-c5ccc(O)c(O)c5)o4)CS[C@H]23)cs1 (single isomer, unassigned) [Example 24 DA]")
-1.30
>>> quantitative_readout("CC(=O)Oc1ccc(-c2nc(SCC3=C(C(=O)O)N4C(=O)[C@@H](NC(=O)/C(=N\\OC(C)(C)C(=O)O)c5csc(N)n5)[C@H]4SC3)sc2CC(=O)O)cc1 [compound 20, reference compound]")
0.80
>>> quantitative_readout("CC(C)(O/N=C(\\C(=O)N[C@@H]1C(=O)N2C(C(=O)O)=C(CSc3nc(-c4ccc(O)cc4)cs3)CS[C@H]12)c1csc(N)n1)C(=O)O [compound 12, reference compound]")
0.49
>>> quantitative_readout("CO/N=C(\\C(=O)N[C@@H]1C(=O)N2C(C(=O)O)=C(CSc3nc(-c4ccccc4)c(CC(=O)O)s3)CS[C@H]12)c1csc(N)n1 [compound 15, reference compound]")
-0.41
>>> quantitative_readout("CON=C(C(=O)NC1C(=O)N2C(C(=O)O)=C(CSc3nc(-c4ccc(O)c(O)c4)cs3)CSC12)c1csc(N)n1 (centres unmarked)")
-1.60
>>> quantitative_readout("Nc1nc(/C(=N/OC(C(=O)O)c2ccccc2)C(=O)N[C@@H]2C(=O)N3C(C(=O)O)=C(CSc4nnc(-c5ccc(O)c(O)c5)o4)CS[C@H]23)cs1 (some centres unmarked) [Ex. 15]")
-1.60
>>> quantitative_readout("C=CCO/N=C(\\C(=O)N[C@@H]1C(=O)N2C(C(=O)O)=C(CSc3nnc(-c4ccc(O)c(O)c4)s3)CS[C@H]12)c1csc(N)n1")
-1.30
>>> quantitative_readout("Nc1nc(C(=NOCc2ccccc2)C(=O)NC2C(=O)N3C(C(=O)O)=C(CSc4nc(C(=O)O)c(-c5ccc(O)c(O)c5)s4)CSC23)cs1 (centres unmarked)")
-1.30
>>> quantitative_readout("CC(C)(O/N=C(\\C(=O)N[C@@H]1C(=O)N2C(C(=O)O)=C(CSc3ncc(-c4ccc(O)cc4)o3)CS[C@H]12)c1csc(N)n1)C(=O)O [compound 24, reference compound]")
1.10
>>> quantitative_readout("CON=C(C(=O)NC1C(=O)N2C(C(=O)O)=C(CSc3nc(-c4ccc(OC(C)=O)c(OC(C)=O)c4)cs3)CSC12)c1csc(N)n1 (centres unmarked)")
-1.30

Where these numbers come from: patent US5061794A
